Read-out: Interleukin-8 (IL8), CXCL8 (gene 3576)
Assay: BSK_LPS_IL8: BioMAP Diversity Plus: LPS Assay for Interleukin-8 (IL8) Biomarker Activity (AID 2283078)
Details: primary human HUVEC with PBMC; actives raise or lower the signal
Active and inactive are the calls of the source. The calls were made as follows: active = hit-call score of the fitted dose curve at least 0.9, where 1 is the maximum; inactive = score below 0.9.
Parameter call: string, one of active, inactive

## Input What did the test return for c1ccc2[nH]c(-c3cscn3)nc2c1 ?
## Output inactive

## Input What did the test return for CCCCOC(=O)C(C)Oc1ccc(Oc2ccc(C(F)(F)F)cn2)cc1 (configuration not stated) ?
## Output inactive

## Input What did the test return for COC(=O)c1ccccc1S(=O)(=O)NC(=O)Nc1nc(OC(F)F)cc(OC(F)F)n1 ?
## Output inactive

## Input What did the test return for O=C(Nc1ccc([N+](=O)[O-])cc1Cl)c1cc(Cl)ccc1O ?
## Output active

## Input What did the test return for COC(=O)c1cccc(C)c1S(=O)(=O)NC(=O)Nc1nc(OCC(F)(F)F)nc(N(C)C)n1 ?
## Output inactive

## Input What did the test return for CC(C)(C)[C@@H](O)[C@@H](Cc1ccc(Cl)cc1)n1cncn1 ?
## Output inactive

## Input What did the test return for CCOC(=O)c1ccc(O)cc1 ?
## Output inactive

## Input What did the test return for C#CCOC(=O)[C@@H](C)Oc1ccc(Oc2ncc(Cl)cc2F)cc1 ?
## Output inactive

## Input What did the test return for CCCCCCC(C)OC(=O)COc1nc(F)c(Cl)c(N)c1Cl (configuration not stated) ?
## Output active

## Input What did the test return for O=C(c1ccccc1)C1CCCCC1 ?
## Output inactive

## Input What did the test return for CCC(C)OC(=O)N1CCCCC1CCO (configuration not stated) ?
## Output inactive

## Input What did the test return for COC(=O)c1ccccc1C(=O)O ?
## Output inactive
